- measured target: Pro-neuregulin-1, membrane-bound isoform (Homo sapiens) (UniProt Q02297)
- Sequence (Q02297 whole entry, looked up, canonical isoform): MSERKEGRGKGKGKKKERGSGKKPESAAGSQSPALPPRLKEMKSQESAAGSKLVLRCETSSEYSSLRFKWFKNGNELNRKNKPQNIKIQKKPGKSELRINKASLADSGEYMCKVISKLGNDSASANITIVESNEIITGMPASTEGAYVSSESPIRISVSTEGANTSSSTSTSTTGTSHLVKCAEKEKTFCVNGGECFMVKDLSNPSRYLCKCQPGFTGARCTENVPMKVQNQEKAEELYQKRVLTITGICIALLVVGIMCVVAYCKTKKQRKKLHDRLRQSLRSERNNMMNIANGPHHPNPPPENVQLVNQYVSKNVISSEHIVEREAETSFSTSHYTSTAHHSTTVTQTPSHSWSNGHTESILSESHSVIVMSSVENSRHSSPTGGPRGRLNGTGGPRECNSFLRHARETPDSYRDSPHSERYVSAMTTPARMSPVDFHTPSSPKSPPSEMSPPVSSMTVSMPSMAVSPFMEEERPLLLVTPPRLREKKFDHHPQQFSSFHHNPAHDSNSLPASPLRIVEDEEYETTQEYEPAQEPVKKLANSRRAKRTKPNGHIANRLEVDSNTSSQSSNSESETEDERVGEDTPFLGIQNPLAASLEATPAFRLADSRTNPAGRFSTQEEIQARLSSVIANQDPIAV
- method: NRG1 binders on small-molecule microarrays, primary screen, psychiatric disease protein project, biochemical, small-molecule microarray, fluorescence 635/667 (AID 1075);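 further: score combines 667 nm spot fluorescence with signal to noise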
- condition summary: NRG1 binding, 635 nm fluorescence, higher = more signal
Answer No if composite z-score is under -0.01, and Yes if it is -0.01 or more.

Does the reported composite z-score for COc1ccc(O[C@H]2C=C[C@@H](c3ccccc3)O[C@@H]2COC(=O)CCC(C)=NOC(C)CN2CCCc3nc(C)c(C)cc32)cc1 (some centres not stated) fall at or above the -0.01 mark? Yes

Continue with C[C@H](ON=C1[C@H]2CCn3c(=O)n(-c4ccccc4)c(=O)n3[C@H]2[C@H](O)[C@@H]2O[C@H]12)c1cn([C@H](CO)Cc2ccccc2)nn1 No

Same thing, different compound: O=C(NN=C1C[C@@H](O)[C@@H](O)[C@@H]2[C@@H]3C(=O)N(C4CCCCC4)C(=O)[C@@H]3CC[C@H]12)OCc1ccccc1 No

// repeat for Cc1cc2c(c(=O)o1)[C@@H](O)[C@H]1O[C@H]1C2=O and report No

Follow-up entry: COc1ccc(O[C@H]2C=C[C@@H](c3ccccc3)O[C@@H]2CON=C(C)CCN2CCc3nc(-c4ccccc4)c(-c4ccccc4)cc3C2)cc1 Yes

Here is the next compound: CO[C@@H]1C=CCC(=O)N[C@@H](C)C(=O)OC[C@@H](OC)[C@H](C)CCCC(=O)OC[C@H]1C No

Please do the same for COc1cccc([C@H]2Oc3ccc(OC)cc3C(=NOC[C@@H](O)[C@H]3O[C@@H]4OC(C)(C)O[C@@H]4[C@H]3O)[C@@H]2O)c1 as well. No

Record: CC(C)(C)N1C(=O)[C@H]2[C@H]3[C@H](O)[C@H](O)CC(=NO[C@@H]4O[C@H](CO)[C@@H](O)[C@H](O)[C@H]4O)[C@H]3CC[C@H]2C1=O Yes

What about this compound? O=C1C[C@@H](O)[C@@H](O)[C@@H]2[C@@H]3C(=O)N(C[C@@H]4CCCO4)C(=O)[C@@H]3CC[C@H]12 Yes

Next record, please: C[C@H]1CC[C@H]2C(=O)OC(CO)CN2[C@@H]1c1ccc(Br)cc1 (some centres not stated) No

Another: Cc1ccc(S(=O)(=O)N[C@@H]2COC(=O)[C@@H](C)COC(=O)CC=C[C@H]2C)cc1 No

Please do the same for C[C@H]1Cc2c(COc3ccccc3)nc3c(c2CO1)CN(CCOc1ccccc1)CC3 as well. Yes

Try CC(C)=CCCC(C)=CCON=C1C[C@@H](O)[C@@H](O)[C@@H]2[C@@H]3C(=O)N(C(C)(C)C)C(=O)[C@@H]3CC[C@H]12 next. Yes

Another compound to look at: CO[C@H](C1CCCCC1)[C@H](C)C=CCC(=O)OCCCc1ccccc1 No

Please give the result for CC(=O)Nc1ccc([C@@H]2N[C@H](C(=O)O)CC[C@H]2C)cc1 too. Yes

Please give the result for COC(=O)C1=C(C)N(Cc2ccccc2)[C@]23O[C@](C(=O)OC)(C(=O)N2[C@@H]1c1ccccc1)C(C(=O)OC)=C3C(=O)OC too. Yes

// query: COC(=O)[C@H]1[C@@H](O)[C@@]2(O)c3ccccc3O[C@@]2(c2ccccc2)[C@@H]1c1ccccc1 No

Repeat for the following compound: O=C1C[C@@H](O)[C@@H](O)[C@@H]2[C@@H]3C(=O)N(c4cccc(Oc5ccccc5)c4)C(=O)[C@@H]3CC[C@H]12 Yes

Now the same for CC(CCC(=O)OC[C@H]1O[C@H](C#Cc2ccccc2)C=C[C@@H]1Oc1ccc(C)cc1)=NO[C@H](C)c1cn([C@H](CO)Cc2ccccc2)nn1 Yes

Field entry: CC(C)CON=C1C[C@@H](O)[C@@H](O)[C@@H]2[C@@H]3C(=O)N(Cc4ccc5c(c4)OCO5)C(=O)[C@@H]3CC[C@H]12 Yes

Then this compound: CO[C@@H]1COC(=O)[C@H](CCSC)NC(=O)CC=C[C@@H](C)COC(=O)[C@H](C)NC(=O)CC=C[C@H]1C No

Try this compound too: CCN1C(=O)[C@H]2[C@H]3[C@H](O)[C@H](O)CC(=NOC[C@H]4O[C@H](c5ccccc5)C=C[C@@H]4Oc4ccc(OC)cc4)[C@@H]3CC[C@H]2C1=O Yes

Consider next the compound CC(C)=CCCC(C)=CCON=C1C[C@@H](O)[C@@H](O)[C@@H]2[C@@H]3C(=O)N(C(C)(C)C)C(=O)[C@@H]3CC[C@@H]12 in the same way. No

Moving on to the next compound: O=C(NN=C1C[C@@H](O)[C@@H](O)[C@@H]2[C@@H]3C(=O)N(C[C@@H]4CCCO4)C(=O)[C@@H]3CC[C@H]12)OCc1ccccc1 No

Okay, and COc1ccc(O[C@H]2C=C[C@@H](c3ccccc3)O[C@@H]2CON=C2[C@H]3CCn4c(=O)n(-c5ccccc5)c(=O)n4[C@H]3[C@H](O)[C@@H]3O[C@H]23)cc1 ? Yes

What do you have for O=C1C[C@@H](O)[C@@H](O)[C@@H]2[C@@H]3C(=O)N(Cc4ccccc4)C(=O)[C@@H]3CC[C@@H]12 ? Yes

Another compound to look at: Cc1ccc(S(=O)(=O)n2c3ccccc3c3nnc(C(=O)c4ccccc4)nc32)cc1 No

Data origin, for the record: PubChem BioAssay
